Exercise: state measured phosphorylation enrichment for each of the sequences provided.
TGT: Jak2 (UniProt O60674)
Sequence (O60674 whole entry, looked up): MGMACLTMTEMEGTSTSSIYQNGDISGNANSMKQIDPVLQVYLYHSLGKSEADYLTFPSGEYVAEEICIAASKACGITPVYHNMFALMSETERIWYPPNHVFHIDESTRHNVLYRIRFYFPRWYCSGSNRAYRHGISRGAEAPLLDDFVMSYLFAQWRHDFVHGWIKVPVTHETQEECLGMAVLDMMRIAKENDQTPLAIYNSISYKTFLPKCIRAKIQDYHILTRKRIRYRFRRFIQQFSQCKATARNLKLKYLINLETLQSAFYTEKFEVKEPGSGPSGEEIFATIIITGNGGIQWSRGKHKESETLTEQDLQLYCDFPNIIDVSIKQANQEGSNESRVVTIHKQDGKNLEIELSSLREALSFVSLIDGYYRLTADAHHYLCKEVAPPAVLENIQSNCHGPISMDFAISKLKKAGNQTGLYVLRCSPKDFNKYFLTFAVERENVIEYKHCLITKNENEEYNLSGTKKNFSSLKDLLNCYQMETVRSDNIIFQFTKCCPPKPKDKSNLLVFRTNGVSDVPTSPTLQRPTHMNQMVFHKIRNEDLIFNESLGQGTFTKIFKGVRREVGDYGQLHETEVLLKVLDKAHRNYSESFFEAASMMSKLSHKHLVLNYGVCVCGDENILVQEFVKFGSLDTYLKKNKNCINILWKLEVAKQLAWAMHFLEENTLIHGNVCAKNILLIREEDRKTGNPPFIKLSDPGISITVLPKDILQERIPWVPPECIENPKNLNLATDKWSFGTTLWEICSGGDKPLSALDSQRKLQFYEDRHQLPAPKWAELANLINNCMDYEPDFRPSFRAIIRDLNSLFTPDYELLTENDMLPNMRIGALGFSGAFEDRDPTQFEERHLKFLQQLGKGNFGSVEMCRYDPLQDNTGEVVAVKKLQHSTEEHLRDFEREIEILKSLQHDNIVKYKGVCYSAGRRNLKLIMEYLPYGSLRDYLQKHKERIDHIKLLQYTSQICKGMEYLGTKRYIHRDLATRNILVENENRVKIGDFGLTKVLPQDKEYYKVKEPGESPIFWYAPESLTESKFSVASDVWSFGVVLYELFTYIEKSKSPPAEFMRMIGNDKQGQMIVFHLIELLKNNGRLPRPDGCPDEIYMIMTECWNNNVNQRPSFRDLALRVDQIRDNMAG
PROTOCOL: phosphorylation enrichment, bacterial display (enrichment ratio); higher = better substrate or ligand; peptides without Tyr show the background;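 note: 11-residue human phosphosite peptides and single-mutation variants displayed on the E. coli surface, counted by deep sequencing, each peptide's frequency after selection divided by its frequency in the unselected input library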;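 note: frequency after pTyr selection over input frequency; kinase dosed for 20-30% of maximal phosphorylation in three min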

q: Given the sequence DLDFTYIYPNI [PTEN_Y27_L25F] , what is its reported phosphorylation enrichment?
a: 2.36

q: Given the sequence ERDFTYDELLN [EIF2S2_Y176_E177D_YF] , what is its reported phosphorylation enrichment?
a: 1.46

q: Given the sequence LAAAKYKLNVD [SMARCA2_Y1190] , what is its reported phosphorylation enrichment?
a: 0.42

q: Given the sequence EQKKFYNAMKK [SCN5A_Y1495_YF] , what is its reported phosphorylation enrichment?
a: 0.569

q: Given the sequence EGELRYMHSRV [ABCD1_Y281_K276E] , what is its reported phosphorylation enrichment?
a: 0.86

q: Given the sequence LDYNEYFRDLN [HPRT1_Y198] , what is its reported phosphorylation enrichment?
a: 1.68

q: Given the sequence HQIQSYTCEID [DES_Y331] , what is its reported phosphorylation enrichment?
a: 1.44

q: Given the sequence PTFKHYANSTQ [SLC12A3_Y70_E68K_YF] , what is its reported phosphorylation enrichment?
a: 0.455

q: Given the sequence SNKLTYGTMVF [ACOX1_Y275] , what is its reported phosphorylation enrichment?
a: 0.863

q: Given the sequence QTEAEYRFIFM [PTPN11_Y511_Q510E_YF] , what is its reported phosphorylation enrichment?
a: 1.24

q: Given the sequence PNQRRYVFFFS [PTEN_Y174_S170N_YF] , what is its reported phosphorylation enrichment?
a: 1.22

q: Given the sequence KEKLCYVALDF [ACTA1_Y220] , what is its reported phosphorylation enrichment?
a: 2.68

q: Given the sequence DTMQTYNGNDE [TSPAN7_Y131_A127T] , what is its reported phosphorylation enrichment?
a: 0.976

q: Given the sequence ELAVNYQEQAS [SLC9A9_Y591_I589V] , what is its reported phosphorylation enrichment?
a: 0.829

q: Given the sequence STGRSYAGVAV [KLHL3_Y577] , what is its reported phosphorylation enrichment?
a: 0.389

q: Given the sequence LTFDEYRNISQ [ANXA3_Y216] , what is its reported phosphorylation enrichment?
a: 1.58

q: Given the sequence RKGGSYTQAAS [HLA-A_Y344] , what is its reported phosphorylation enrichment?
a: 0.637

q: Given the sequence HFVDEYDPTIE [KRAS_Y32] , what is its reported phosphorylation enrichment?
a: 1.54

q: Given the sequence SVCPDYDLCSI [SQSTM1_Y148_V153I] , what is its reported phosphorylation enrichment?
a: 1.11

q: Given the sequence LSCLAYSGKDA [FXN_Y205_S202C] , what is its reported phosphorylation enrichment?
a: 1.24
